These measurements were taken from patent US20180185510A1.

Target: T1, B7H3 on B7H3-positive human tumour cells (A498, MCF-7, Caki-2, 786-0) (human, UniProt Q5ZPR3 29-534)
T1 sequence (looked up): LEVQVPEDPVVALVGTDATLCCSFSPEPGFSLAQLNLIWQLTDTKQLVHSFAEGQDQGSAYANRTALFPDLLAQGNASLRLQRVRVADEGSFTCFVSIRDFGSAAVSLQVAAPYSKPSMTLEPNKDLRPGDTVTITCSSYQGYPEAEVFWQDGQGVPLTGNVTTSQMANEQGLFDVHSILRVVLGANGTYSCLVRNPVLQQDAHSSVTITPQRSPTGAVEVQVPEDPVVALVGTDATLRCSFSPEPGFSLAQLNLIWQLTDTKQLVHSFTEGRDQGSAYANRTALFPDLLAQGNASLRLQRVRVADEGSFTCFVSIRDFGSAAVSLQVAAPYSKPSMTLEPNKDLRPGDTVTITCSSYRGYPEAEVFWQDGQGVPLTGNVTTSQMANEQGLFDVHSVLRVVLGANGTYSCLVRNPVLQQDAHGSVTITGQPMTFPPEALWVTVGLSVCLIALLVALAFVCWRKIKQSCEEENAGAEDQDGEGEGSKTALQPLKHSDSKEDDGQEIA
Experiment: cell-based or functional assay
Let's look at some binders and their measured IC50 [M] CTG, MCF-7 cells (B7H3-positive).
Numbers only here, please. The scale is M.

Sample answers from the record:
# Binder, Scale unit, Quantitative readout
data = [
    ("Example 296L2: anti-B7H3 AK1B (TPP-5706) coupled with Intermediate F296 (antibody, human IgG1, kappa, V domains shown, KSP inhibitor-linker (Intermediate F296) on cysteine residues of the partially reduced antibody, sites not given; drug/mAb ratio 3.2) VH: QVQLQQPGAELVKPGASVKMSCKASGYTFTIYNVHWIKQTPGQGLEWMGTIFPGNGDTSYNQKFKDKATLTTDKSSKTAYMQLNSLTSEDSAVYYCARWDDGNVGFAHWGQGTLVTVSA VL: DIQMTQSPASLSASVGETVTITCRASENINNYLTWFQQKQGKSPQLLVYHAKTLAEGVPSRFSGSGSGTQFSLKINSLQPEDFGSYYCQHHYGTPPTFGGGTKLEIKR", "M", "1.63e-10"),
    ("Example 297L2 (Isomer 1): anti-B7H3 AK1B (TPP-5706) coupled with Intermediate F297 (antibody, human IgG1, kappa, V domains shown, KSP inhibitor-linker (Intermediate F297) on cysteine residues of the partially reduced antibody, sites not given; drug/mAb ratio 3.1) VH: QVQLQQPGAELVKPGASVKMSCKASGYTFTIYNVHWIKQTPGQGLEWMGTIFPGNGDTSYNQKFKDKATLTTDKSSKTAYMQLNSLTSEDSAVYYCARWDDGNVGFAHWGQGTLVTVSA VL: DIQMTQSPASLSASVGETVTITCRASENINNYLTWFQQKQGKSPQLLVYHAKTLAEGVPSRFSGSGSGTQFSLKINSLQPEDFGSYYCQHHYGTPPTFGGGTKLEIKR", "M", "7.56e-10"),
    ("Example 240L2: anti-B7H3 AK1B (TPP-5706) coupled with Intermediate F240 (antibody, human IgG1, kappa, V domains shown, KSP inhibitor-linker (Intermediate F240) on cysteine residues of the partially reduced antibody, sites not given; drug/mAb ratio 3.5) VH: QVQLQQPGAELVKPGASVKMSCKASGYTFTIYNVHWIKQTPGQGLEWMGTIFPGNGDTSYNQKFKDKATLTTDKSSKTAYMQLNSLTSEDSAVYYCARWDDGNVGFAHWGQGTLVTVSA VL: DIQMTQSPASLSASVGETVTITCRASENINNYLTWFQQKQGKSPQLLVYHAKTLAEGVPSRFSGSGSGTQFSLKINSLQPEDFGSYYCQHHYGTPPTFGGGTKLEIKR", "M", "1.58e-10"),
    ("Example 274L1: anti-B7H3 AK1A (TPP-3803) coupled with Intermediate F274 (antibody, human IgG1, kappa, V domains shown, KSP inhibitor-linker (Intermediate F274) on cysteine residues of the partially reduced antibody, sites not given; drug/mAb ratio 2.9) VH: QVKLQQSGAELVKPGASVKLSCKASGYTFTNYDINWVRQRPEQGLEWIGWIFPGDGSTQYNEKFKGKATLTTDTSSSTAYMQLSRLTSEDSAVYFCARQTTATWFAYWGQGTTVTVSS VL: DIELTQSPTTLSVTPGDRVSLSCRASQSISDYLHWYQQKSHESPRLLIKYASQSISGIPSRFSGSGSGSDFTLSINSVEPEDVGVYYCQNGHSFPLTFGAGTKLELKR", "M", "1.86e-09"),
]

Next binder, IC50 [M] CTG, MCF-7 cells (B7H3-positive) to be filled in.
Retrieve IC50 [M] CTG, MCF-7 cells (B7H3-positive) measured for Example 194: anti-B7H3 AK1A (TPP-3803) coupled with Intermediate F194 (antibody, human IgG1, kappa, V domains shown, KSP inhibitor-linker (Intermediate F194) on lysine residues, sites not given; drug/mAb ratio 2.4) VH: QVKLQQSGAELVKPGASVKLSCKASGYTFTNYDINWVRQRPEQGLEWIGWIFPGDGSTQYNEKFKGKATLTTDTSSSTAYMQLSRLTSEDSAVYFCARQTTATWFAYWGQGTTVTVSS VL: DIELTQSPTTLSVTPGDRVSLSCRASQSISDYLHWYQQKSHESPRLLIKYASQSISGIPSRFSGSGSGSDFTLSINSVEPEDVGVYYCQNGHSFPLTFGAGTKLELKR and print it.
6.43e-10
